Catalogue of Plasma LH concentration at 120 minute, group Mean readings, one per entry.
- System: GnRH-induced plasma LH levels and ovulation
- test-description: GnRH challenge in heifers pre-treated with GnRH antagonists: plasma LH and ovulation (Example 10)
- Type: in vivo, cattle
- assay-conditions: heifers; after GnRH injection
Square brackets hold non-standard residues; d marks the D form. Peptide text beside a SMILES is read from it. * marks the point of attachment. dPhe(4-NHCONH2) = NC(=O)Nc1ccc(C[C@@H](N)C(=O)O)cc1; Dihydroorotyl(S) = O=C1C[C@@H](C(=O)*)NC(=O)N1; dPhe(4-Cl) = N[C@H](Cc1ccc(Cl)cc1)C(=O)O; Phe(4-NH2) = Nc1ccc(C[C@H](N)C(=O)O)cc1; d2Nal = N[C@H](Cc1ccc2ccccc2c1)C(=O)O; Lys(iPr) = CC(C)NCCCC[C@H](N)C(=O)O; NMeY = CN[C@@H](Cc1ccc(O)cc1)C(=O)O; dCit = NC(=O)NCCC[C@@H](N)C(=O)O; d3Pal = N[C@H](Cc1cccnc1)C(=O)O
Lab book: enter the figure in mIU/ml, no units written.

CC(=O)N[C@H](Cc1ccc2ccccc2c1)C(=O)N[C@H](Cc1ccc(Cl)cc1)C(=O)N[C@H](Cc1cccnc1)C(=O)N[C@@H](CO)C(=O)N(C)[C@@H](Cc1ccc(O)cc1)C(=O)N[C@H](CC(N)=O)C(=O)N[C@@H](CC(C)C)C(=O)N[C@@H](CCCCNC(C)C)C(=O)N1CCC[C@H]1C(=O)N[C@H](C)C(N)=O [Abarelix] (Ac-[d2Nal][dPhe(4-Cl)][d3Pal]S[NMeY][dN]L[Lys(iPr)]P[dA]-NH2)    11.23
CC(=O)N[C@H](Cc1ccc2ccccc2c1)C(=O)N[C@H](Cc1ccc(Cl)cc1)C(=O)N[C@H](Cc1cccnc1)C(=O)N[C@@H](CO)C(=O)N[C@@H](Cc1ccc(NC(=O)[C@@H]2CC(=O)NC(=O)N2)cc1)C(=O)N[C@H](Cc1ccc(NC(N)=O)cc1)C(=O)N[C@@H](CC(C)C)C(=O)N[C@@H](CCCCNC(C)C)C(=O)N1CCC[C@H]1C(=O)N[C@H](C)C(N)=O [Degarelix] (Ac-[d2Nal][dPhe(4-Cl)][d3Pal]S[Phe(4-NH2)](Dihydroorotyl(S))[dPhe(4-NHCONH2)]L[Lys(iPr)]P[dA]-NH2)    8.62
CONC(=O)Nc1ccc(-c2sc3c(c2CN(C)C)c(=O)n(-c2ccc(OC)nn2)c(=O)n3Cc2c(F)cccc2F)cc1    6.97

API: the following record is the query input.
Briefly, Plasma LH concentration at 120 minute, group Mean measured for CC(=O)N[C@H](Cc1ccc2ccccc2c1)C(=O)N[C@H](Cc1ccc(Cl)cc1)C(=O)N[C@H](Cc1cccnc1)C(=O)N[C@@H](CO)C(=O)N[C@@H](Cc1ccc(O)cc1)C(=O)N[C@H](CCCNC(N)=O)C(=O)N[C@@H](CC(C)C)C(=O)N[C@@H](CCCNC(=N)N)C(=O)N1CCC[C@H]1C(=O)N[C@H](C)C(N)=O [Cetrorelix] (Ac-[d2Nal][dPhe(4-Cl)][d3Pal]SY[dCit]LRP[dA]-NH2) : 12.18

###

- Tested on: bovine pituitary cells
- test-description: GnRH-induced LH secretion of bovine pituitary cells in vitro (Example 9)
- Format: cell-based
- assay-conditions: challenged with 1 nM GnRH 30 minutes after 60 minutes preincubation; 300 μg cetrorelix, 340 μg Degarelix, 300 ug Abarelix, 130 μg Relugolix
Square brackets hold non-standard residues; d marks the D form. Peptide text beside a SMILES is read from it. * marks the point of attachment. dPhe(4-NHCONH2) = NC(=O)Nc1ccc(C[C@@H](N)C(=O)O)cc1; Dihydroorotyl(S) = O=C1C[C@@H](C(=O)*)NC(=O)N1; dPhe(4-Cl) = N[C@H](Cc1ccc(Cl)cc1)C(=O)O; Phe(4-NH2) = Nc1ccc(C[C@H](N)C(=O)O)cc1; d2Nal = N[C@H](Cc1ccc2ccccc2c1)C(=O)O; Lys(iPr) = CC(C)NCCCC[C@H](N)C(=O)O; dCit = NC(=O)NCCC[C@@H](N)C(=O)O; d3Pal = N[C@H](Cc1cccnc1)C(=O)O
assay-readout: LH conc in medium

Solved entries:
CC(=O)N[C@H](Cc1ccc2ccccc2c1)C(=O)N[C@H](Cc1ccc(Cl)cc1)C(=O)N[C@H](Cc1cccnc1)C(=O)N[C@@H](CO)C(=O)N[C@@H](Cc1ccc(O)cc1)C(=O)N[C@H](CCCNC(N)=O)C(=O)N[C@@H](CC(C)C)C(=O)N[C@@H](CCCNC(=N)N)C(=O)N1CCC[C@H]1C(=O)N[C@H](C)C(N)=O [Cetrorelix] (Ac-[d2Nal][dPhe(4-Cl)][d3Pal]SY[dCit]LRP[dA]-NH2)    0.09 mIU/mL
CONC(=O)Nc1ccc(-c2sc3c(c2CN(C)C)c(=O)n(-c2ccc(OC)nn2)c(=O)n3Cc2c(F)cccc2F)cc1    1.72 mIU/mL

Briefly, LH conc in medium measured for CC(=O)N[C@H](Cc1ccc2ccccc2c1)C(=O)N[C@H](Cc1ccc(Cl)cc1)C(=O)N[C@H](Cc1cccnc1)C(=O)N[C@@H](CO)C(=O)N[C@@H](Cc1ccc(NC(=O)[C@@H]2CC(=O)NC(=O)N2)cc1)C(=O)N[C@H](Cc1ccc(NC(N)=O)cc1)C(=O)N[C@@H](CC(C)C)C(=O)N[C@@H](CCCCNC(C)C)C(=O)N1CCC[C@H]1C(=O)N[C@H](C)C(N)=O [Degarelix] (Ac-[d2Nal][dPhe(4-Cl)][d3Pal]S[Phe(4-NH2)](Dihydroorotyl(S))[dPhe(4-NHCONH2)]L[Lys(iPr)]P[dA]-NH2) : 1.33 mIU/mL
